- TARGET_OR_TEST_SYSTEM: D(2) dopamine receptor (Homo sapiens, UniProt P14416)
- Sequence (P14416 whole entry): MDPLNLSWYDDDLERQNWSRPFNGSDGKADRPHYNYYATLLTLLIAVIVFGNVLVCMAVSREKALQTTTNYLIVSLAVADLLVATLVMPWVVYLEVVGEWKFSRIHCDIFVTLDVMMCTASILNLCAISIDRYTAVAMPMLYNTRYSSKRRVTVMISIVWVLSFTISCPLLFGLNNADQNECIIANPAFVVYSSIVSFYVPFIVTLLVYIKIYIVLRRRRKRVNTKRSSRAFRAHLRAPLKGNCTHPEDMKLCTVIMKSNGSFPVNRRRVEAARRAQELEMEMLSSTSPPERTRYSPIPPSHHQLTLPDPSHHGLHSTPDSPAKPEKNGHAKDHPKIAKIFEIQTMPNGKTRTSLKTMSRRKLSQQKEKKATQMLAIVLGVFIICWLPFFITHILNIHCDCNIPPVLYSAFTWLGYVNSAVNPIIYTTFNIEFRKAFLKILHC
- ASSAY_TEXT: Displacement of [3H]spiperone from human D2S receptor expressed in CHO cells
- Format: cell-based
RECORDED_METRIC: Ki (nM)
// return numeric value only (unit: nM, not printed)

Endpoint output: Ki of COc1ccccc1OCCNC[C@@H](O)c1ccc(O)c(O)c1 . Value?
200

Given the entry OCc1cc(C(O)CNCCCCCCOCCCCc2ccccc2)ccc1O (stereo not drawn) , report its measured Ki.
32000

Which Ki is reported for this compound? COc1cc(CCNC[C@H](O)c2ccc(O)c(O)c2)ccc1OCCCc1ccccc1
67

What does the record list as Ki for COc1ccccc1OCCNC[C@@H](O)COc1cccc2[nH]c3ccccc3c12 [(R)-Carvedilol] ?
26

Tell me the measured Ki of COc1cc(CCNCCc2ccc(O)c3c2OCC(=O)N3)ccc1OCCCc1ccccc1 , please.
17

Query (compound): COc1cc(CCNC[C@@H](O)c2ccc(O)c3[nH]c(=O)ccc23)ccc1OCCCc1ccccc1 ; field requested: Ki
2300

Consider the compound shown here: CNC[C@H](O)c1ccc(O)c(O)c1 [EPINEPHRINE] What is its recorded Ki?
910

Fill in: Ki of COc1cc(CCNC[C@H](O)c2ccc(O)c3c2OCC(=O)N3)ccc1OCCCc1ccccc1 is ___
65

----------
- TARGET_OR_TEST_SYSTEM: UniProtKB P07550
- Sequence (P07550 whole entry): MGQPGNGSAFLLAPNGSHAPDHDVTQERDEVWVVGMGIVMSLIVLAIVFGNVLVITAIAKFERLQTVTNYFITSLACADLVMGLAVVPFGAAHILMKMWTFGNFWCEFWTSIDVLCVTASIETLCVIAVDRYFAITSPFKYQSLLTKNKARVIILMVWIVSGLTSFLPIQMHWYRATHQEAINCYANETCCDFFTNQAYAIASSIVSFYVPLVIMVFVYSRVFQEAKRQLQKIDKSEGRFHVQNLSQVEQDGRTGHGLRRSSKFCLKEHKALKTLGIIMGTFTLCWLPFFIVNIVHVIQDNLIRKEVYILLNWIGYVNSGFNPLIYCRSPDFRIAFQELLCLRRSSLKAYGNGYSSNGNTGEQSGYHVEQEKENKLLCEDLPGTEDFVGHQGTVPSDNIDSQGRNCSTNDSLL
- ASSAY_TEXT: Agonist activity at PK-tagged beta2 receptor (unknown origin) transfected in HEK293 cells after 90 mins by beta-arrestin assay
- Assay type: cell-based
pEC50: −log10 of the molar value.
Returns one of TRUE or FALSE; TRUE when pEC50 is >= 7.

Does COc1ccccc1OCCNC[C@@H](O)c1ccc(O)c(O)c1 have a reported pEC50 of at least 7?
FALSE

Could you verify whether the entry COc1cc(CCNC[C@H](O)c2ccc(O)c3c2OCC(=O)N3)ccc1OCCCc1ccccc1 shows pEC50 of no less than 7?
TRUE

# check: pEC50 of COc1cc(CCNC[C@H](O)c2ccc(O)c3[nH]c(=O)ccc23)ccc1OCCCc1ccccc1 is greater than or equal to 7
TRUE

# bool: pEC50 of COc1cc(CCNC[C@@H](O)c2ccc(O)c(O)c2)ccc1OCCCc1ccccc1 >= 7
FALSE

Is it the case that COc1cc(CCNC[C@@H](O)c2ccc(O)c3[nH]c(=O)ccc23)ccc1OCCCc1ccccc1 has pEC50 reaching or exceeding 7?
FALSE

Reported pEC50 reaches at least 7 for COc1ccccc1OCCNC[C@H](O)c1ccc(O)c(O)c1 ?
FALSE

Say whether COc1cc(CCNC[C@H](O)c2ccc(O)c(O)c2)ccc1OCCCc1ccccc1 shows pEC50 of 7 or more.
FALSE

Could you verify whether the entry COc1cc(CCNC[C@@H](O)c2ccc(O)c3c2OCC(=O)N3)ccc1OCCCc1ccccc1 shows pEC50 of no less than 7?
FALSE

----------
- ASSAY_TEXT: Displacement of [3H]RX821002 from alpha-2 receptor in porcine cortical membranes
- Format: cell membranes, Sus scrofa
Provide the reported Ki of each item.
Report as a plain number; the unit nM is understood.

Item under review: COc1cc(CCNCCc2ccc(O)c(O)c2)ccc1OCCCc1ccccc1 . Reported Ki?
810

State the recorded Ki for this entry: COc1cc(CCNC[C@@H](O)c2ccc(O)c3c2OCC(=O)N3)ccc1OCCCc1ccccc1
2200

Suppose we examine the compound COc1cc(CCNC[C@@H](O)c2ccc(O)c(O)c2)ccc1OCCCc1ccccc1 ; what Ki value has been reported?
2500

Fill blank: measured Ki of the compound COc1cc(CCNCCc2ccc(O)c3c2OCC(=O)N3)ccc1OCCCc1ccccc1 is ____.
270

Value lookup for Ki; key = COc1ccccc1OCCNCCc1ccc(O)c(O)c1
390

I have this compound here, COc1cc(CCNC[C@H](O)c2ccc(O)c3c2OCC(=O)N3)ccc1OCCCc1ccccc1 , and I need its recorded Ki.
4700

Any idea what Ki was measured for COc1cc(CCNCCc2ccc(O)c3[nH]c(=O)ccc23)ccc1OCCCc1ccccc1 ?
13000

Field request: Ki | item: COc1ccccc1OCCNC[C@H](O)c1ccc(O)c(O)c1
420

State the recorded Ki for this entry: CC(C)NCC(O)c1ccc(O)c(O)c1 (stereo unspecified)
5700

Please look up its Ki: COc1cc(CCNC[C@H](O)c2ccc(O)c(O)c2)ccc1OCCCc1ccccc1
1200

Endpoint output: Ki of COc1ccccc1OCCNC[C@@H](O)c1ccc(O)c(O)c1 . Value?
760

----------
RECORDED_METRIC: pKi
Quick note: pKi means taking -log10 of the concentration in moles per liter.

Record COc1cc(CCNC[C@@H](O)c2ccc(O)c3[nH]c(=O)ccc23)ccc1OCCCc1ccccc1 : what is its pKi with D(4) dopamine receptor (Homo sapiens, UniProt P21917)?
5.04

Provide value of pKi for this record tested with D(4) dopamine receptor (Homo sapiens, UniProt P21917): COc1cc(CCNCCc2ccc(O)c3c2OCC(=O)N3)ccc1OCCCc1ccccc1
Sequence (P21917 whole entry): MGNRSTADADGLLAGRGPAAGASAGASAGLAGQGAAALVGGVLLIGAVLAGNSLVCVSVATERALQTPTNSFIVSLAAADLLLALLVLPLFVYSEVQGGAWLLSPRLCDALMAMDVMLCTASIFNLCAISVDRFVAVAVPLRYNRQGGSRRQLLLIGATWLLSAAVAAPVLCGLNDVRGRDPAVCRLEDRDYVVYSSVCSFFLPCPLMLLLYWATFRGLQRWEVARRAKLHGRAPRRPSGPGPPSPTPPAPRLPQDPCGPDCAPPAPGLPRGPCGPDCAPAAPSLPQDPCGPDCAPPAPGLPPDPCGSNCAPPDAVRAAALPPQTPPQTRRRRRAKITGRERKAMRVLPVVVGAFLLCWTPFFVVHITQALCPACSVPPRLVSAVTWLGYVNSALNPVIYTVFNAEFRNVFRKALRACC
7.26

Request body: readout pKi, system D(4) dopamine receptor (Homo sapiens, UniProt P21917), query COc1cc(CCNC[C@@H](O)c2ccc(O)c3c2OCC(=O)N3)ccc1OCCCc1ccccc1 . Return the value.
5.27

Provide the documented pKi with D(4) dopamine receptor (Homo sapiens, UniProt P21917) as the system for COc1ccccc1OCCNCCc1ccc(O)c(O)c1
8.35

----------
Assign Ki to each entry below.
Enter your answer as a number in nM; do not include the unit.

# query: Ki | item COc1ccccc1OCCNCCc1ccc(O)c(O)c1 | system: D(3) dopamine receptor (Homo sapiens)
25

Lookup: Ki / D(3) dopamine receptor (Homo sapiens) / COc1cc(CCNC[C@@H](O)c2ccc(O)c3[nH]c(=O)ccc23)ccc1OCCCc1ccccc1
790

Form entry - test system: D(3) dopamine receptor (Homo sapiens); read-out: Ki; compound: COc1cc(CCNC[C@H](O)c2ccc(O)c3c2OCC(=O)N3)ccc1OCCCc1ccccc1
Sequence (P35462 whole entry): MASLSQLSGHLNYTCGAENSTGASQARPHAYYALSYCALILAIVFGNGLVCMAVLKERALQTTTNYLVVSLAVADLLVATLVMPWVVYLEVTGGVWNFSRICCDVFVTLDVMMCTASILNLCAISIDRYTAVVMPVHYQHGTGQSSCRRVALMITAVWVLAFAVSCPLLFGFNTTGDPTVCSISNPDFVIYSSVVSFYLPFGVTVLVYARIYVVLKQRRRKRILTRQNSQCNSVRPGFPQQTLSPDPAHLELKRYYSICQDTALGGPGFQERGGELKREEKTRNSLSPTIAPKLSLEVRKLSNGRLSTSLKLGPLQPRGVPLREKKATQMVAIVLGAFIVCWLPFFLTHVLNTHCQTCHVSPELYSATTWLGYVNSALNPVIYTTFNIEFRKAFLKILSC
690

What Ki appears in the records for this compound with D(3) dopamine receptor (Homo sapiens)? COc1ccccc1OCCNC[C@@H](O)c1ccc(O)c(O)c1
610

Hi! What's the reported Ki for COc1cc(CCNC[C@@H](O)c2ccc(O)c(O)c2)ccc1OCCCc1ccccc1 on D(3) dopamine receptor (Homo sapiens)?
660

Find the measured Ki: item COc1cc(CCNC[C@H](O)c2ccc(O)c3[nH]c(=O)ccc23)ccc1OCCCc1ccccc1 , target or system D(3) dopamine receptor (Homo sapiens).
1700

Enter reported Ki observed with D(3) dopamine receptor (Homo sapiens) for CC(C)NCC(O)c1ccc(O)c(O)c1 (configuration not stated)
4700

----------
Kindly supply the reported pKi values for the records listed here.
- TARGET_OR_TEST_SYSTEM: D(2) dopamine receptor (Homo sapiens, UniProt P14416)
- ASSAY_TEXT: Displacement of [3H]spiperone from human D2L receptor expressed in CHO cells
- Assay type: cell-based
Reminder that pKi means the negative base-10 logarithm of the concentration expressed in mol/L.

Notebook: pull reported pKi for D(2) dopamine receptor (Homo sapiens, UniProt P14416), entry COc1cc(CCNCCc2ccc(O)c3[nH]c(=O)ccc23)ccc1OCCCc1ccccc1
7.19

Give D(2) dopamine receptor (Homo sapiens, UniProt P14416) pKi for COc1cc(CCNCCc2ccc(O)c3c2OCC(=O)N3)ccc1OCCCc1ccccc1
7.92

For the record CC(C)NCC(O)c1ccc(O)c(O)c1 (configuration not stated) [ISOPROTERENOL] , what value of pKi is listed for D(2) dopamine receptor (Homo sapiens, UniProt P14416)?
4.32

Give the reported pKi for COc1ccccc1OCCNCCc1ccc(O)c(O)c1 (system: D(2) dopamine receptor (Homo sapiens, UniProt P14416)).
7.07

Tell me reported pKi for COc1cc(CCNC[C@@H](O)c2ccc(O)c3c2OCC(=O)N3)ccc1OCCCc1ccccc1 , tested with D(2) dopamine receptor (Homo sapiens, UniProt P14416).
6.51

D(2) dopamine receptor (Homo sapiens, UniProt P14416) / pKi / COc1cc(CCNC[C@@H](O)c2ccc(O)c3[nH]c(=O)ccc23)ccc1OCCCc1ccccc1 : value?
5.54

Observed pKi on D(2) dopamine receptor (Homo sapiens, UniProt P14416) for COc1cc(CCNC[C@H](O)c2ccc(O)c3[nH]c(=O)ccc23)ccc1OCCCc1ccccc1 , please.
5.24

----------
Please go through the items and note down their Ki.
Answer format: numeric, nM implied, no suffix.

Checklist item: Ki tested on Beta-1 adrenergic receptor (Mus musculus, UniProt P34971), entry COc1cc(CCNCCc2ccc(O)c3[nH]c(=O)ccc23)ccc1OCCCc1ccccc1 , value?
150

Request - read-out Ki | tested on Beta-1 adrenergic receptor (Mus musculus, UniProt P34971) | molecule COc1ccccc1OCCNC[C@H](O)c1ccc(O)c(O)c1
160

For Beta-1 adrenergic receptor (Mus musculus, UniProt P34971), provide Ki of COc1ccccc1OCCNCCc1ccc(O)c(O)c1 please.
5000
